assay: Part B: single-dose PK of 20 mg zanubrutinib alone and with steady-state itraconazole (CYP3A inhibition) in healthy subjects; format: in vivo, human; details: both sexes, human, plasma, oral, 20 mg, 20 mg zanubrutinib alone, Day 1; geometric mean (CV%)
outcomeMeasure: Cmax (ng/mL)
The reply should contain only the number, in ng/mL.

Query C=CC(=O)N1CCC([C@@H]2CCNc3c(C(N)=O)c(-c4ccc(Oc5ccccc5)cc4)nn32)CC1 [zanubrutinib, Zanubrutinib] yields Cmax of 48

###

Experiment: Part B: single-dose PK of 20 mg zanubrutinib alone and with steady-state itraconazole (CYP3A inhibition) in healthy subjects
Format: in vivo, human
Details: both sexes, human, plasma, oral; 20 mg zanubrutinib alone; median (min–max)
Procedure: This was an open-label, parallel-group, fixed-sequence study in healthy male and female subjects conducted in two parts, Part A and Part B. Part A investigated the effect of CYP3A induction by steady-state rifampin on the single-dose PK of 320 mg zanubrutinib, and Part B investigated the effect of CYP3A inhibition by steady-state itraconazole on the single-dose PK of 20 mg zanubrutinib. […]
outcomeMeasure: Tmax (h)
The reply should contain only the number, in h.

Query C=CC(=O)N1CCC([C@@H]2CCNc3c(C(N)=O)c(-c4ccc(Oc5ccccc5)cc4)nn32)CC1 [zanubrutinib, Zanubrutinib] yields Tmax of 1.5

###

assay: Part B: single-dose PK of 20 mg zanubrutinib alone and with steady-state itraconazole (CYP3A inhibition) in healthy subjects; format: in vivo, human; details: both sexes, human, plasma, oral, 20 mg, Asian subjects, Part B Day 1, 20 mg zanubrutinib alone; geometric mean (CV%)
outcomeMeasure: Cmax (ng/mL)
The reply should contain only the number, in ng/mL.

Query `C=CC(=O)N1CCC([C@@H]2CCNc3c(C(N)=O)c(-c4ccc(Oc5ccccc5)cc4)nn32)CC1` yields Cmax of 50

###

test: Part A: single-dose PK of 320 mg zanubrutinib alone and with steady-state rifampin (CYP3A induction) in healthy subjects; type: in vivo, human; conditions: both sexes, human, plasma, oral, Non-Asian subjects, Part A Day 10, zanubrutinib + rifampicin; geometric mean (CV%)
outcomeMeasure: AUC(0-inf) (ng·h/mL)
The reply should contain only the number, in ng·h/mL.

Query `C=CC(=O)N1CCC([C@@H]2CCNc3c(C(N)=O)c(-c4ccc(Oc5ccccc5)cc4)nn32)CC1` yields AUC(0-inf) of 293

###

experiment: Part A: single-dose PK of 320 mg zanubrutinib alone and with steady-state rifampin (CYP3A induction) in healthy subjects; format: in vivo, human; settings: both sexes, human, plasma, oral; 320 mg zanubrutinib + 600 mg rifampin QD; geometric mean (CV%); read-out: Vz/F
outcomeMeasure: Vd/F (L)
The reply should contain only the number, in L.

Query `C=CC(=O)N1CCC([C@@H]2CCNc3c(C(N)=O)c(-c4ccc(Oc5ccccc5)cc4)nn32)CC1` yields Vd/F of 8660
